target: GCN2 kinase (Homo sapiens); experiment: GCN2 enzyme inhibition assay (Transcreener ADP2 fluorescence polarization); type: biochemical; conditions: compounds of Formula II; 280 μM ATP, 4 nM GCN2 kinase
Sequence (Q9P2K8 whole entry): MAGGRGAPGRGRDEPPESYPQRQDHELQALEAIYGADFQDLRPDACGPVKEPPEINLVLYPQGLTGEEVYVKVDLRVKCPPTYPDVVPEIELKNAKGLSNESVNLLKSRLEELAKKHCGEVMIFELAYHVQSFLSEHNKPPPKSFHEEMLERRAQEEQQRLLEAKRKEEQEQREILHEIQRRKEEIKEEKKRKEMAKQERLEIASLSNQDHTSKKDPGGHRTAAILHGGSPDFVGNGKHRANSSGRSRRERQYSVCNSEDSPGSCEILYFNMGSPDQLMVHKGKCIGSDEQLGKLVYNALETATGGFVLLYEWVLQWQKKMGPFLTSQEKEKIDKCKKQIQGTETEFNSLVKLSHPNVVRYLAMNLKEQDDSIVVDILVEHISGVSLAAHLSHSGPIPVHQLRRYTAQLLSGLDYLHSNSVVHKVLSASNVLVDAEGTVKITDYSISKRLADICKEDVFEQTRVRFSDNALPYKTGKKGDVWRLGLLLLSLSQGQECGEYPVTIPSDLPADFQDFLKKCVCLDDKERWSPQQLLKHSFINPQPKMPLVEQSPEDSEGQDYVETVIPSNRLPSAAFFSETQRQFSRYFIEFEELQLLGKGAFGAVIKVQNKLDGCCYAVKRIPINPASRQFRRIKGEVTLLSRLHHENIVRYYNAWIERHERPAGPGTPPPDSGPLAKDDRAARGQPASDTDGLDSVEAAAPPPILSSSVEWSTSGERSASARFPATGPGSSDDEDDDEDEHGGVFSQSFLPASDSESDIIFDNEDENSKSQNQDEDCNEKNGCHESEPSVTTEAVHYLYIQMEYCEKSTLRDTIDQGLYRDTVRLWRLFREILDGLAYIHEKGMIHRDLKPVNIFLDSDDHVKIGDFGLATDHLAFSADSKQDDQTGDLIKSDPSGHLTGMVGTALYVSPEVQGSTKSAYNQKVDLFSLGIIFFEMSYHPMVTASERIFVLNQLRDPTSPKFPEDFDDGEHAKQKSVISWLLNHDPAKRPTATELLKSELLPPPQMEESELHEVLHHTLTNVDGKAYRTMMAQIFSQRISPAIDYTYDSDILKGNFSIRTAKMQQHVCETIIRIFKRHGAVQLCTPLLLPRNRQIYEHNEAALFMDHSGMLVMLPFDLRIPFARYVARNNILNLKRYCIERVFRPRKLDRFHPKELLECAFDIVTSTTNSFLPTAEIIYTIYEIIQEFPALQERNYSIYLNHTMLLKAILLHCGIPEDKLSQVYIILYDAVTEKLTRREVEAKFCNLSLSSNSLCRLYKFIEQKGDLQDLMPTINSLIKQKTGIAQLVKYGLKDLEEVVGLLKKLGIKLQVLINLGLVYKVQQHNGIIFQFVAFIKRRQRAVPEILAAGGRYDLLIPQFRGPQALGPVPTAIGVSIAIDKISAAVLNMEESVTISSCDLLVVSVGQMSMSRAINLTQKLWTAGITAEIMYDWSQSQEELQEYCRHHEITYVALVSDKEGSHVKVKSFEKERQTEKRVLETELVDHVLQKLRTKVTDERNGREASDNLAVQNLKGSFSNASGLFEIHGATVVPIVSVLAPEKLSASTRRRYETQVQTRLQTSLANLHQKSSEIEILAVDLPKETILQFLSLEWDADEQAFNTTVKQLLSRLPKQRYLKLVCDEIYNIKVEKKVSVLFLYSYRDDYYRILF
pKi: −log10 of the molar value.
observation.type: pKi

Worked cases, pKi given:
Give the measured pKi of CC1C(CNS(C)(=O)=O)N(C)CCN1c1cc(-c2cnc3ccc(C(F)F)nn23)ncn1 (mixture of isomers) [II-312] .
> 8.00

Query (compound): CC(=O)N1CCN(c2cc(-c3cnc4ccc(C(F)(F)F)nn34)ccn2)CC1 [II-223] ; field requested: pKi
6.00 to 8.00

Could you tell me which pKi is on file for CC1C(C(N)=O)NCCN1c1cc(-c2cnc3ccc(C(F)F)nn23)ncn1 (centres unmarked) [II-477] ?
6.00 to 8.00

Entry under review: O=C1CCC2CN(c3cc(-c4cnc5ccc(C(F)F)nn45)ccn3)CCN12 (centres unmarked) [II-167] . Reported pKi?
6.00 to 8.00

Return reported pKi; argument: CN(C1CCCN(c2cc(-c3cnc4ccc(C(F)F)nn34)ncn2)C1)S(C)(=O)=O (centres unmarked) [II-455]
6.00 to 8.00

Need pKi, item CC1CC(CNS(C)(=O)=O)C(C)N(c2cc(-c3cnc4ccc(C(F)F)nn34)ncn2)C1 (centres unmarked) [II-511]
> 8.00

More entries:
Entry under review: CS(=O)(=O)N1CCC2C(C1)OCCN2c1cc(-c2cnc3ccc(C(F)F)nn23)ncn1 (centres unmarked) [II-369] . Reported pKi?
6.00 to 8.00

# pKi lookup, item CC1C(CNS(C)(=O)=O)C(F)(F)C(C)CN1c1cc(-c2cnc3ccc(C(F)F)nn23)ncn1 (single isomer, unassigned) [II-467]
> 8.00

Quick one: pKi for O=C1NCC2CN(c3cc(-c4cnc5ccc(C(F)F)nn45)ncn3)CCN12 (centres unmarked) [II-46] ?
6.00 to 8.00

Need pKi, item CC1CN(c2cc(-c3cnc4ccc(C(F)(F)F)nn34)ncn2)C(C)C(c2cn[nH]c2)N1 (centres unmarked) [II-704]
6.00 to 8.00

Need pKi, item O=C1NCCC12CCCN(c1cc(-c3cnc4ccc(C(F)F)nn34)ccn1)C2 (centres unmarked) [II-156]
6.00 to 8.00

Find the recorded pKi belonging to C[C@H]1CN(c2cc(-c3cnc4ccc(C(F)F)nn34)ncn2)C[C@@H](CNS(N)(=O)=O)C1(F)F [II-316] and report it.
> 8.00

Fill in: pKi of CC1(CNS(C)(=O)=O)CCCN(c2cc(-c3cnc4ccc(C(F)F)nn34)ccn2)C1 (centres unmarked) [II-115] is ___
6.00 to 8.00

// pKi lookup, key: CC1CC(CNS(C)(=O)=O)CN(c2cc(-c3cnc4ccc(C(F)F)nn34)ncn2)C1C (centres unmarked) [II-592]
> 8.00

Source of measurements: patent US10988477B2
